Numbers sourced from ChEMBL document CHEMBL3988442.

Target: AMP-activated protein kinase, AMPK (Homo sapiens) (UniProt P54646+O43741+P54619+Q9UGJ0+Q9Y478+Q13131+Q9UGI9)
Test: AMP-dependent Kinase enzyme assay. An in vitro enzyme assay that detects ADP turnover that is directly proportional to AMPK activity. This uses naive AMPK that is activated during the assay with MK-8722
Type: functional
Set-up: scale not given: direction of the effect not stated beside the values
Settings: 30 µM
Percent Effect overview
quantity: Percent Effect (%)

INSERT INTO assay_data (compound, unitsofmeasure, experimentalresult) VALUES
  ('Cc1noc(C)c1C(=O)NCC(O)c1ccc(F)cc1F (stereo unspecified)', '%', -4.32),
  ('CNC(=O)C1Cn2ccnc2C2(CCN(CCF)CC2)O1 (stereo unspecified)', '%', 2.6),
  ('CNC(=O)CS(=O)(=O)C1CCN(S(=O)(=O)c2ccccc2Br)CC1', '%', 4.03),
  ('CC(Cn1ccnc1)NC(=O)C1(c2ccc(F)cc2)CC1 (stereo unspecified)', '%', -3.38),
  ('Clc1ccccc1C1(c2ccnc(-c3ncccn3)n2)CCNCC1', '%', 1.81),
  ('CC1CCN(S(=O)(=O)c2cccn(CC(=O)NC3CCCC3)c2=O)CC1', '%', -5.65),
  ('O=C(C1=CCCC1)N1C[C@@H]2COC[C@]2(COc2cccnc2)C1', '%', 7.33),
  ('CCC(=O)Nc1nnc(CCCOc2ccccc2)s1', '%', 6.74),
  ('O=C1CC(c2cccnc2)C2(CCN(S(=O)(=O)C3CC3)CC2)N1 (stereo unspecified)', '%', 1.06),
  ('COc1c(C2CCCN2C(=O)c2csc(C(C)C)n2)c(C)nn1C (stereo unspecified)', '%', 2.93),
  ('CN(Cc1ccco1)[C@@H]1CN(Cc2ccco2)[C@@H]2CCCO[C@H]12', '%', 15.3);

----------
Molecular target: Ubiquitin-activating enzyme e1, putative (Leishmania donovani (strain BPK282A1)) (UniProt E9BSI1)
Sequence (E9BSI1 as listed by the source): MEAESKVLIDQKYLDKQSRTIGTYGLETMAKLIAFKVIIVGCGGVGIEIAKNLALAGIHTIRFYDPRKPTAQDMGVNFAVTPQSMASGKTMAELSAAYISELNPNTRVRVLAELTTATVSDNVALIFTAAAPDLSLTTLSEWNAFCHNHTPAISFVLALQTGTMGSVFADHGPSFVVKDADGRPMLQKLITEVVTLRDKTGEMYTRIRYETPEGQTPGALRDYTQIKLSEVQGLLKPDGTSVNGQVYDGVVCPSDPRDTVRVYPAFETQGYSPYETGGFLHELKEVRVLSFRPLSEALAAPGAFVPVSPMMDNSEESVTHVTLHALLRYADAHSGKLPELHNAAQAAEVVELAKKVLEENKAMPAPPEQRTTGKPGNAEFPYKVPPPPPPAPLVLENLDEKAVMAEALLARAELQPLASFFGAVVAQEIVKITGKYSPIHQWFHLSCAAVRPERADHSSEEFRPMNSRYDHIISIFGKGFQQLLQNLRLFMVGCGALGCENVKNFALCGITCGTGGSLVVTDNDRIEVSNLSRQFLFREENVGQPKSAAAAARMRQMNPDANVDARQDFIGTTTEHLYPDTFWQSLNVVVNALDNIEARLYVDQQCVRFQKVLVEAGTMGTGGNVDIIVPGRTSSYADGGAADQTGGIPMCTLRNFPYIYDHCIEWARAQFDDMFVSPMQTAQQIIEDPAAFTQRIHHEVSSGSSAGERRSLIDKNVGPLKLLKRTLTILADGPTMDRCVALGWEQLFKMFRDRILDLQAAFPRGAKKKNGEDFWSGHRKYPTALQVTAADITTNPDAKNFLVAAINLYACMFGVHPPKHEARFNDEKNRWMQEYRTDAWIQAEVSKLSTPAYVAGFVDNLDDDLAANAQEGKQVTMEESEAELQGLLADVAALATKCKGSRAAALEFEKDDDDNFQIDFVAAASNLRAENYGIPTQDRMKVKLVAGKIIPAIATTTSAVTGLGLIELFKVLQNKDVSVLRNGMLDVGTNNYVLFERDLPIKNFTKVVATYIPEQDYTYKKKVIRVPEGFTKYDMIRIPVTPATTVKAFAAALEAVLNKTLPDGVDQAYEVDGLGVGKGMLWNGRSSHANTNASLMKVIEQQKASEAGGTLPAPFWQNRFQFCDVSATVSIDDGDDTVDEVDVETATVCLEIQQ
Assay: Leishmania donovani Ubiquitin Activating Enzyme (LdE1)
Format: functional
Design: scale not given: direction of the effect not stated beside the values
Conditions: 30 µM
Results with a measured potency or affinity are listed apart.
Reported Percent Effect by item:
quantity: Percent Effect (%)

INSERT INTO measurements (compound, quantity, experimentalresult) VALUES
  ('CNc1cncc(C2CCCN2Cc2ccccn2)n1 (centres undefined)', 'Percent Effect', -4.05),
  ('COc1ccc2c(c1)CCN(CCC(=O)NC1CCCCC1)CC2', 'Percent Effect', 2.7),
  ('O=c1cc2c(nn1CN1CCN(c3cccc(Cl)c3)CC1)CCC2', 'Percent Effect', 6.67),
  ('Cc1nc(C)n(CC2CCCN(c3ncnc4sccc34)C2)n1 (centres undefined)', 'Percent Effect', 13.5),
  ('CC(C)C1CN(C(=O)c2nccnc2N)CCS1 (centres undefined)', 'Percent Effect', 10.4),
  ('O=C(CCNS(=O)(=O)c1ccccc1)NCc1ccoc1', 'Percent Effect', 5.33),
  ('CC(C)c1nc(CN2CCN(C(C)c3nc(C4CC4)no3)CC2)no1 (centres undefined)', 'Percent Effect', -3.8),
  ('CC(C)c1n[nH]c(C(=O)Nc2ccncc2)c1Br', 'Percent Effect', 7.59),
  ('O=C(c1ccc2c(c1)OCO2)N1CCC[C@]2(C[C@H](OCC3CC3)CO2)C1', 'Percent Effect', 13.3),
  ('c1coc(-c2nnc(CN3CCOC(Cn4cccn4)C3)o2)c1 (centres undefined)', 'Percent Effect', 7.59),
  ('Cc1cn(-c2ccccc2)nc1NS(=O)(=O)c1cc(C(=O)O)cs1', 'Percent Effect', -5.48),
  ('CC(C)N(C)Cc1cnc2n1CCN(C(=O)NC1CCCC1)C2', 'Percent Effect', 0),
  ('COc1cccc(CNCCc2cc(F)cc3c2OCOC3)c1', 'Percent Effect', 1.39),
  ('Cc1nc(CCNC(=O)C2CC(=O)N(C(C)(C)C)C2)sc1C (centres undefined)', 'Percent Effect', 0),
  ('CCn1nc(C)c(CNC(=O)c2cn(CC3CCCO3)nn2)c1C (centres undefined)', 'Percent Effect', 0),
  ('Cc1cc(-c2cnc(NCc3cccnc3)nc2C(C)C)on1', 'Percent Effect', 2.67),
  ('CCN1CCCn2c(nc(CNC(=O)c3ccsc3)cc2=O)C1', 'Percent Effect', 13.5),
  ('CN1CCN(C(=O)CC2CCN(CCc3ccccn3)CC2)CC1', 'Percent Effect', 5.2),
  ('COc1cc(C(=O)NC(CC(=O)O)c2cccs2)cc(Cl)c1OC (centres undefined)', 'Percent Effect', 8.86),
  ('CC(C)NC(=O)N1CCN(S(=O)(=O)C2CC2)CC2(CNC(=O)C2)C1 (centres undefined)', 'Percent Effect', 18.2),
  ('Cn1cc(-c2cnc(N3CCOCC3)nc2)cc1C(=O)N1CCOCC1', 'Percent Effect', 13.3),
  ('CCN(Cc1nc2c(cnn2C)c(=O)[nH]1)c1ccc(OC)c(OC)c1', 'Percent Effect', 24.1),
  ('Cc1noc([C@H]2C[C@H]3OCC[C@H]3N(Cc3ccc4c(c3)OCO4)C2)n1', 'Percent Effect', 13.5),
  ('CNC(=O)c1cccc(C2CNCCN2C)c1 (centres undefined)', 'Percent Effect', 14.9);

----------
The compounds listed here are annotated with their Percent Effect.
Target: Arginase-2, mitochondrial (Homo sapiens) (UniProt P78540)
Sequence (P78540 whole entry): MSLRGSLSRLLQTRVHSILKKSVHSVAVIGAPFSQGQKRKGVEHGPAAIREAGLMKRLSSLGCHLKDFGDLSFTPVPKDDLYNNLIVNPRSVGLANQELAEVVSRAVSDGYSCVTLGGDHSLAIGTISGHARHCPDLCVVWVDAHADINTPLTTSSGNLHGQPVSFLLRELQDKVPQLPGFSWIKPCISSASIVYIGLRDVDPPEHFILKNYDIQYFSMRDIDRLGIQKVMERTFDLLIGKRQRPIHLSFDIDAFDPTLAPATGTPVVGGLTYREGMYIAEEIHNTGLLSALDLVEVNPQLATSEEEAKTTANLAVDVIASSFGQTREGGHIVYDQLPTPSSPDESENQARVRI
Experiment: in vitro enzyme assay to detect the production of urea directly proportional to the activity of Arginase II; further: in the data most compounds retested in dose-response had high values
Type: functional
Set-up: scale not given: direction of the effect not stated beside the values
Conditions: 33.3 µM
quantity: Percent Effect (%)

INSERT INTO measurements (compound, experimentalresult) VALUES
  ('Cc1ccc(CNC(c2ccccc2)c2nccn2C)cc1C (stereo not given)', -0.554),
  ('Cn1ncc2c1NC(=O)CC2c1ccc(Cl)cc1Cl (stereo not given)', -1.18),
  ('Cc1cc(C)n(CC2CCCCN2Cc2cscn2)n1 (stereo not given)', 4.42),
  ('Cc1ccc(N2CCCN(C(=O)CC3CCCO3)CC2)nn1 (stereo not given)', -8.82),
  ('Cc1cccc(CN2CCc3c(nc(N4CCCCC4C)[nH]c3=O)C2)n1 (stereo not given)', 0.232),
  ('CS(=O)(=O)N1CCOCC2(CCN(C(=O)c3cccnc3)CC2)C1', 4.79),
  ('COCCC(=O)N1C[C@@H]2COC[C@]2(COCc2cccnc2)C1', 12.3),
  ('COCCN(C)C(=O)Nc1ccc2c(ccn2CCOC)c1', -1.18),
  ('Cc1nc(N2CCOCC2)nc2c1CCN(Cc1cccnc1)CC2', -56.8),
  ('O=C(CN(Cc1ccccc1)CC1CCOCC1)NC(=O)NC1CC1', -4.39),
  ('COCCN1C(=O)CC(N2CCN(c3ccc(OC)cc3)CC2)C1=O (stereo not given)', 13.7),
  ('NS(=O)(=O)Cc1ccc(CNC(=O)NCC2CCOC2)cc1 (stereo not given)', 3.58),
  ('Cn1ccnc1CC1CCCN(C(=O)Nc2cccn(C)c2=O)C1 (stereo not given)', 27.9),
  ('CCc1nc(C)c(C(=O)NCCNc2ncccn2)s1', 0),
  ('CCn1ccnc1CN1CCN(CCC(=O)NC(C)(C)C)CC1C (stereo not given)', 10),
  ('O=C(Nc1ccccn1)C1=NN(c2ccccc2)C(=O)CN1', -5.32),
  ('CCS(=O)(=O)NC[C@]12COC[C@H]1CN(Cc1cccc(OC)c1)C2', -4.14),
  ('COCC1CN(C(=O)c2cccn2C)Cc2ncnn2C1 (stereo not given)', 4.14),
  ('O=C(Cn1cc(C(=O)O)ccc1=O)NCc1ccc(F)c(Cl)c1', -6.87),
  ('O=C(CCNC(=O)c1ccccc1)Nc1ccncc1', -8.28),
  ('Cc1nc(C)n(CC2CCCCN2CCCS(=O)(=O)N(C)C)n1 (stereo not given)', 3.33),
  ('Cc1ccc(N2CCCC(NCc3ccsc3)C2)nn1 (stereo not given)', 1.6),
  ('Cn1ncc2c(=O)[nH]c(N3CCN(C(=O)c4ccsc4)CC3)nc21', 17.2),
  ('COc1c(CNC2CCN(C(=O)C3CC3)CC2)c(C(C)C)nn1C', 1.44),
  ('CCn1c(C)nnc1CN(C)C1CCN(CCc2ccncc2)C1 (stereo not given)', -3.16);

----------
Molecular target: Tyrosyl-tRNA synthetase, putative (Trypanosoma cruzi (strain CL Brener))
Experiment: Trypanosoma cruzi tyrosyl tRNA synthetase (TcYRS) _High Tyrosine SOP; further: in the data most compounds retested in dose-response had high values
Assay type: functional
Parameters: scale not given: direction of the effect not stated beside the values
Details: 30 µM
Recorded Percent Effect values for a group of molecules are listed next.
quantity: Percent Effect (%)

INSERT INTO results (molecule, quantity, unitsofmeasure, experimentalresult) VALUES
  ('CN(C)Cc1nnc(C2CCN(C(=O)CCc3cccs3)CC2)n1C', 'Percent Effect', '%', 6.88),
  ('CN(CCc1ccccc1)C1CCCN(Cc2nccn2C)C1 (configuration not stated)', 'Percent Effect', '%', 6.45),
  ('CCN1CCCn2c(nc(CNC(=O)c3ccsc3)cc2=O)C1', 'Percent Effect', '%', 3.24),
  ('Cc1cc(NC(=O)CN2CCc3cnc(C)nc3C2)on1', 'Percent Effect', '%', 8.37),
  ('Cc1ccoc1C(=O)N1CC[C@H]2OCC[C@@]2(COCc2ccncc2)C1', 'Percent Effect', '%', 7.41),
  ('CN1CCOC(CNCc2cccc(OCC(F)(F)F)c2)C1 (configuration not stated)', 'Percent Effect', '%', 4.43),
  ('Cc1cc(CN(C)C2CCCN(Cc3noc(C4CC4)n3)C2)no1 (configuration not stated)', 'Percent Effect', '%', 1.48),
  ('CN(Cc1ncc[nH]1)CC(c1cccs1)N1CCOCC1 (configuration not stated)', 'Percent Effect', '%', 11.9),
  ('CN(C)c1ccc(CCNC(=O)NCc2ccc(N(C)C)nc2)cc1', 'Percent Effect', '%', 7.39),
  ('N#Cc1ccc(C2CC(=O)Nc3c2cnn3C2CCCC2)cc1 (configuration not stated)', 'Percent Effect', '%', 1.64),
  ('C=C(C)CN(Cc1cccc(O)c1)C1CCC(O)CC1 (configuration not stated)', 'Percent Effect', '%', 2.15),
  ('c1ncn(CC2CCCN(Cc3nc(C4CC4)no3)C2)n1 (configuration not stated)', 'Percent Effect', '%', 6.4);
